Recorded values, source ChEMBL document CHEMBL1144553.

IC50 data for UniProt P45452 follow.
observation-type: IC50 (nM)

CC(C)[C@H](NS(=O)(=O)c1ccc(-c2ccc(F)cc2)cc1)P(=O)(O)O; 13

(I) Cc1cccc(-c2ccc(S(=O)(=O)N[C@@H](C(C)C)P(=O)(O)O)cc2)c1
(II) COc1ccc(-c2ccc(S(=O)(=O)N[C@@H](C(C)C)P(=O)(O)O)cc2)cc1
Q) When I and II are compared, which has the higher number for IC50? Select an item and report its label.
A) I

###

IC50 data for Matrix metalloproteinase-14 (Homo sapiens) follow.
observation-type: IC50 (nM)

(P) CC(C)[C@H](NS(=O)(=O)c1ccc(-c2cccc(Cl)c2)cc1)P(=O)(O)O
(Q) CC(C)[C@H](NS(=O)(=O)c1ccc(-c2ccc(Cl)cc2)cc1)P(=O)(O)O
(R) CC(C)[C@H](NS(=O)(=O)c1ccc(-c2ccc(F)cc2)cc1)P(=O)(O)O
(S) CC(C)[C@H](NS(=O)(=O)c1ccc(-c2cccc(F)c2)cc1)P(=O)(O)O
Q) Lab note: IC50 ranking, ascending, for the listed compounds. Field: ranking. Enter the labels in the order requested.
A) R, Q, P, S

(a) COc1ccc(CCc2ccc(S(=O)(=O)N[C@@H](C(C)C)P(=O)(O)O)cc2)cc1
(b) CC(C)[C@H](NS(=O)(=O)c1ccc(CCc2ccccc2)cc1)P(=O)(O)O
(c) CCOc1ccc(-c2ccc(S(=O)(=O)N[C@@H](C(C)C)P(=O)(O)O)cc2)cc1
Q) List items by IC50 in falling order. Field: ranking. Enter the labels in the order requested.
A) a, b, c
